The measurements presented in this section are drawn from patent US9850241B2.

Some molecules, each annotated with its measured pIC50.
assay-system: hCRTH2 receptor (Homo sapiens, UniProt Q9Y5Y4)
Construct: expressed in transfected cells; host or cells: HEK293 (recombinant HEK293-hCRTH2), membrane fragments
Sequence (Q9Y5Y4 1-395): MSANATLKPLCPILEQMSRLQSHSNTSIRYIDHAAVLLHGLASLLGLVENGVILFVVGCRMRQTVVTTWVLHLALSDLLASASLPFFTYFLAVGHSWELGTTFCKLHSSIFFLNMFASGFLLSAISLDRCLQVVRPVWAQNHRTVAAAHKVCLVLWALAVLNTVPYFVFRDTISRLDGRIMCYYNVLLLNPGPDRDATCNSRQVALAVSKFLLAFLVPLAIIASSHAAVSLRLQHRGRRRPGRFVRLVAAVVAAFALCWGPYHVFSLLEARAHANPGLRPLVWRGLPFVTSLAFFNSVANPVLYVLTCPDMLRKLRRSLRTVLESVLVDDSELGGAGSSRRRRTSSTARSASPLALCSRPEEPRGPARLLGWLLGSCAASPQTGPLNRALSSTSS
assay-procedure: hCRTH2 receptor membranes radioligand displacement assay (3H-PGD2)
Format: binding
experimental-conditions: HEK293-hCRTH2 membranes, 3H-PGD2 2.5 nM, 0.1% BSA
Note on pIC50: it is the negative log10 of concentration, concentration in mol/L.

Example entries and their recorded answers appear below.
Input line: Please report the recorded pIC50 for CN(c1nc2cc(F)ccc2o1)C1CCc2c(c3ncccc3n2CC(=O)O)C1 (stereo not drawn) [Example 3] .
Output line: 7.51

Input line: Please report the recorded pIC50 for CN(c1nc2ccc(Cl)cc2o1)C1CCc2c(c3ncccc3n2CC(=O)O)C1 (stereo not drawn) [Example 1] .
Output line: 7.96

Let us move to another entry and its pIC50.
Input line: Please report the recorded pIC50 for CN(c1nc2cc(Cl)ccc2o1)C1CCc2c(c3ncccc3n2CC(=O)O)C1 (stereo not drawn) [Example 2] .
Output line: 7.46
